Below, each entry is listed alongside its reported IC50.
# systemName: PARP-1 (Homo sapiens, UniProt P09874)
# Sequence (P09874 whole entry): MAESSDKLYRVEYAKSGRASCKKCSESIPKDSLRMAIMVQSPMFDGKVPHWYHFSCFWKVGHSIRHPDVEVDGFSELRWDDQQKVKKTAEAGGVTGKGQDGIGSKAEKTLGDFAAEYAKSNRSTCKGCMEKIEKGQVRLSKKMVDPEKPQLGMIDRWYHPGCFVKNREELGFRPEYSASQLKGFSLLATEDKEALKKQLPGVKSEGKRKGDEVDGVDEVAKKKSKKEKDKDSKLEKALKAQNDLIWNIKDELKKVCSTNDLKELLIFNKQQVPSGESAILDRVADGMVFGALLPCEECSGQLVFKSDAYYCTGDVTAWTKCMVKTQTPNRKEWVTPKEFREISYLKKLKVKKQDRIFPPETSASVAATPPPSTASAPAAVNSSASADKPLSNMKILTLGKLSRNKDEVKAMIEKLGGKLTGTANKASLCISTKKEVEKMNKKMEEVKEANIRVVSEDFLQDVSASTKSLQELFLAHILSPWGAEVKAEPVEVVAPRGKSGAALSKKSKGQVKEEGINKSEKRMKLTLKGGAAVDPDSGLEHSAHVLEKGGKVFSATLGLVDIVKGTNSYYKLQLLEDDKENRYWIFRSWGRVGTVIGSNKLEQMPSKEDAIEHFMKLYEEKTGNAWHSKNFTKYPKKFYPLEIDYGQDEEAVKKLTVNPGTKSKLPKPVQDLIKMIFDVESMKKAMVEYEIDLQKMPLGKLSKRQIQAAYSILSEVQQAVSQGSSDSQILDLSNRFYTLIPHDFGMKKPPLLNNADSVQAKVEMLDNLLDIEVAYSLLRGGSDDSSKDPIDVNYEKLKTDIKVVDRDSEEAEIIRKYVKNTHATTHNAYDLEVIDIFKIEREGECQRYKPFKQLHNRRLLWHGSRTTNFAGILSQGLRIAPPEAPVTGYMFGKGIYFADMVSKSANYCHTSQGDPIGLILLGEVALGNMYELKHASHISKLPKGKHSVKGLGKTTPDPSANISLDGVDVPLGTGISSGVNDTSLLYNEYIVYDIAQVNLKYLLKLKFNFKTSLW

Below, 2 compounds whose answers are already recorded.
1) COC1CCC(NC(=O)c2cc(Cc3n[nH]c(=O)c4ccccc34)ccc2F)C1 (stereo not drawn)	49.5 nM
2) COC1CN(C(=O)c2cc(Cc3n[nH]c(=O)c4ccccc34)ccc2F)C1	< 10 nM

Now look at this one.
Need IC50, item COC1CCN(C(=O)c2cc(Cc3n[nH]c(=O)c4ccccc34)ccc2F)C1 (stereo not drawn) < 10 nM

* * *

# systemName: PARP-1 (Homo sapiens)
attributeMeasured: IC50 (nM)

1. CO[C@H]1C[C@H](NC(=O)c2cc(Cc3n[nH]c(=O)c4ccccc34)ccc2F)C1 [Compound 7]	20.8

A. CO[C@H]1C[C@@H](NC(=O)c2cc(Cc3n[nH]c(=O)c4ccccc34)ccc2F)C1 [Compound 8]
B. COC1CCC(NC(=O)c2cc(Cc3n[nH]c(=O)c4ccccc34)ccc2F)CC1 (stereo not shown) [Compound 10]
Looking only at measured IC50, which entry is lower, A or B ? State your choice using its label. A
(A: 107 nM, B: 226 nM)

* * *

# Tested on: UWB1.289 cells
# measurementDescription: Cell viability assay
# assayContext: UWB1289, read-out: UWB1.289 EC50
attributeMeasured: EC50 (nM)
Field format: number, assumed nM, no unit text.

Below, 3 compounds whose answers are already recorded.
1. COC1CC(NC(=O)c2cc(Cc3n[nH]c(=O)c4ccccc34)ccc2F)C1 (stereo not shown)	10100
2. CO[C@H]1C[C@H](NC(=O)c2cc(Cc3n[nH]c(=O)c4ccccc34)ccc2F)C1	1940
3. COC1CCC(NC(=O)c2cc(Cc3n[nH]c(=O)c4ccccc34)ccc2F)C1 (stereo not shown)	1320

Need EC50, item COC1CCCN(C(=O)c2cc(Cc3n[nH]c(=O)c4ccccc34)ccc2F)CC1 (stereo not shown) 2840

And what about the compound COC1CN(C(=O)c2cc(Cc3n[nH]c(=O)c4ccccc34)ccc2F)C1 ? 2120

And what about the compound O=C(c1cc(Cc2n[nH]c(=O)c3ccccc23)ccc1F)N1CCN(C(=O)C2CC2)CC1 [olaparib, reference compound] ? 900

And what about the compound COC1CCC(NC(=O)c2cc(Cc3n[nH]c(=O)c4ccccc34)ccc2F)CC1 (stereo not shown) ? 2420

* * *

# System: UWB1.289 cells
# measurementDescription: Cell viability assay
# assayContext: UWB1289, read-out: UWB1.289 EC50
Below, each entry is listed alongside its reported pEC50.
// scale note: pEC50 = -log10(conc_M); give the bare number

1) COC1CCN(C(=O)c2cc(Cc3n[nH]c(=O)c4ccccc34)ccc2F)CC1 [Compound 4, AZD2461, reference compound]	6.05
2) COC1CCN(C(=O)c2cc(Cc3n[nH]c(=O)c4ccccc34)ccc2F)C1 (stereo not drawn) [Compound 3]	5.82

Now look at this one.
Please tell me: pEC50 of CO[C@H]1C[C@@H](NC(=O)c2cc(Cc3n[nH]c(=O)c4ccccc34)ccc2F)C1 [Compound 8] , system UWB1.289 cells? 5.36
